measured.target: SycD (WP_010891209) (Yersinia enterocolitica, UniProt O87496)
Sequence (O87496 1-168): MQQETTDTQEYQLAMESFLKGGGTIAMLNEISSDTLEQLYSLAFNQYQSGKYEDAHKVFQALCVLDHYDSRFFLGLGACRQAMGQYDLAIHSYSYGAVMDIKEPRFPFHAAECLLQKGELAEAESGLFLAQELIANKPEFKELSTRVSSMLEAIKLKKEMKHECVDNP
Type: binding
condition.summary: ITC; range given for all 6 chaperones (PcrH, IpgC, SycD, CesD, BicA, VcrH); read-out: Kd

- compound: "Nc1nc2c(ncn2C2OC3COP(=O)(O)OC4C(COP(=O)(O)OC3C2O)OC(n2cnc3c(=O)[nH]c(N)nc32)C4O)c(=O)[nH]1 (stereo not shown) [c-di-GMP, Cyclic di-GMP]"
  Kd: "150 to 220 nM"

###

measured.target: YedQ-LBD (Salmonella typhimurium)
Construct: the periplasmic LBD (residues 43–357) of YedQ is structurally not well defined; His6 (N, cleaved yes); made in house; host or cells: E. coli BL21(DE3) or its luxS deletion derivative, pET-28a
Sequence (Q8ZNT5 43-357): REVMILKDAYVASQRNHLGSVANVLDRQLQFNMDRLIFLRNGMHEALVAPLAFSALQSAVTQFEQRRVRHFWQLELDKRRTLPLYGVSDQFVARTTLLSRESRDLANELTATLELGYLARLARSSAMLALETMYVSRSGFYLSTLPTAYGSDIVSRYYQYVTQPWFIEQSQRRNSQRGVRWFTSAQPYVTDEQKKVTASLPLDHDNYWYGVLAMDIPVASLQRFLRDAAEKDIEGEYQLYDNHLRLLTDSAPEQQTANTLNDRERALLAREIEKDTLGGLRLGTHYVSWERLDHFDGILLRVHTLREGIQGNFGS
experimental.details: biochemical
Assay type: binding, S. Typhimurium
condition.summary: ITC; YedQ-LBD WT; mean ± s.d. of three independent experiments; read-out: Kd
pKd: −log10 of the molar value.

- compound: "C[C@H](CCC(=O)NCCS(=O)(=O)O)[C@H]1CC[C@H]2[C@@H]3CC[C@@H]4C[C@H](O)CC[C@]4(C)[C@H]3C[C@H](O)[C@]12C [taurodeoxycholate]"
  pKd: 6.85

###

measured.target: YedQ-LBD D233A (Salmonella typhimurium, UniProt Q8ZNT5, D233A)
Sequence (Q8ZNT5 43-357 D233A): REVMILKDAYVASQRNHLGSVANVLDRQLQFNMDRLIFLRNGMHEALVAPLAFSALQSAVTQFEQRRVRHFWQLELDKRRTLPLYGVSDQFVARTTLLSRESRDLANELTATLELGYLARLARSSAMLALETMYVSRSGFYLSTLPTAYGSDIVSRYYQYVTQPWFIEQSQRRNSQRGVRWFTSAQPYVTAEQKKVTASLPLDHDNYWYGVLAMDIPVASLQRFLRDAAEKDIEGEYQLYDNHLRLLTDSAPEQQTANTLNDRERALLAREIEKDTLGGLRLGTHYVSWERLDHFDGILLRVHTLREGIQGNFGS
experimental.details: biochemical
condition.summary: Kd, Taurocholate binding to YedQ-LBDD233A, ITC, individual replicates, Supplementary Figure 11a
pKd: −log10 of the molar value.
measured.metric: pKd

- compound: "C[C@H](CCC(=O)NCCS(=O)(=O)O)[C@H]1CC[C@H]2[C@@H]3[C@H](O)C[C@@H]4C[C@H](O)CC[C@]4(C)[C@H]3C[C@H](O)[C@]12C [taurocholate]"
  measured.metric: "pKd"
  numeric.readout: 4.74

###

measured.target: YedQ-LBD D233A (Salmonella typhimurium, UniProt Q8ZNT5, D233A)
experimental.details: biochemical
condition.summary: Binding affinity Kd (μM), ITC; YedQ-LBD D233A; mean ± s.d.

- compound: "C[C@H](CCC(=O)NCCS(=O)(=O)O)[C@H]1CC[C@H]2[C@@H]3[C@H](O)C[C@@H]4C[C@H](O)CC[C@]4(C)[C@H]3C[C@H](O)[C@]12C [taurocholate]"
  Kd (µM): 18

###

measured.target: BicA (WP_009896148) (Burkholderia thailandensis)
Sequence (Q2T712 1-171): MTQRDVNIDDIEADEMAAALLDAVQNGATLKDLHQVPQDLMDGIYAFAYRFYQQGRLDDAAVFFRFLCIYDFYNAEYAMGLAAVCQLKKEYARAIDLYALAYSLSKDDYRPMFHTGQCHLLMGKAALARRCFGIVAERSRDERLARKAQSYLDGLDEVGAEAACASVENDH
Type: binding

- compound: "Nc1nc2c(ncn2C2OC3COP(=O)(O)OC4C(COP(=O)(O)OC3C2O)OC(n2cnc3c(=O)[nH]c(N)nc32)C4O)c(=O)[nH]1 (stereo not shown)"
  Kd: "150 to 220 nM"

###

measured.target: PcrH (WP_003113548) (Pseudomonas aeruginosa, UniProt Q9I325)
Sequence (Q9I325 1-167): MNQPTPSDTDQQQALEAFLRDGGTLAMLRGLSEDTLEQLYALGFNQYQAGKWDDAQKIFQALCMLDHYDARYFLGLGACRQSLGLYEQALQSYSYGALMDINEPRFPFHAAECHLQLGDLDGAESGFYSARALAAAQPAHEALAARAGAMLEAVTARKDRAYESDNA
Format: binding
condition.summary: ITC; range given for all 6 chaperones (PcrH, IpgC, SycD, CesD, BicA, VcrH); read-out: Kd

- compound: "Nc1nc2c(ncn2C2OC3COP(=O)(O)OC4C(COP(=O)(O)OC3C2O)OC(n2cnc3c(=O)[nH]c(N)nc32)C4O)c(=O)[nH]1 (stereo not shown)"
  Kd: "150 to 220 nM"

###

measured.target: YeaJ-LBD (Salmonella enterica subsp. enterica serovar Typhimurium, UniProt Q8ZPW4)
Sequence (Q8ZPW4 30-304): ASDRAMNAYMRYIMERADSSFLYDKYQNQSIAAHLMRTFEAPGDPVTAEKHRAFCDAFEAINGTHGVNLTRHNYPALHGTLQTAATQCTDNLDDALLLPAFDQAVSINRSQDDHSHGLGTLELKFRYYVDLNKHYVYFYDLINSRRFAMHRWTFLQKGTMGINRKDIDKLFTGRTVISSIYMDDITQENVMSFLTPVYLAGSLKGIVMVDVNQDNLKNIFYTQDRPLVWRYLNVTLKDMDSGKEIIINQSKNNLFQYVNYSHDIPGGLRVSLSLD
experimental.details: ITC: DPD/AI-2 binding to YeaJ-LBD
Parameters: species or system S. Typhimurium
condition.summary: 20 °C, mean ± s.d. of three independent experiments
measured.metric: Kd (µM)

- item.smiles: "CC(=O)C(=O)[C@@H](O)CO"
  measured.metric: "Kd"
  unit.info: "µM"
  numeric.readout: 0.15

Values compiled from paper PMC9637222.
